- Method Summary: activity coefficient (dimensionless); of the first substance listed, at infinite dilution; xn = mol fraction of the nth substance listed
- Run Parameters: 310 K; Liquid; x1 = 0
Recorded Endpoint: activity coefficient

[[record]]
molecule = "C/C=C/C [(E)-2-butene] + CCCC(C)O"
assay_value = 2.65

[[record]]
molecule = "C=CCC [1-butene] + CCCC(C)O"
assay_value = 2.69

[[record]]
molecule = "C/C=C/C [(E)-2-butene] + CCCCCO"
assay_value = 2.76

[[record]]
molecule = "CC(C)C [2-methylpropane] + CCCC(C)O"
assay_value = 3.3

[[record]]
molecule = "C=C(C)C [2-methylpropene] + CCCC(C)O"
assay_value = 2.63

[[record]]
molecule = "C=C(C)C [2-methylpropene] + CCCCCO"
assay_value = 2.76

[[record]]
molecule = "CCC [propane] + CCCCCO"
assay_value = 3.05

[[record]]
molecule = "C=CC [propene] + CCCCCO"
assay_value = 2.59


----------
- Method Summary: activity coefficient (dimensionless); of the first substance listed, at infinite dilution; xn = mol fraction of the nth substance listed
- Run Parameters: 330.01 K; Liquid; x1 = 0
Recorded Endpoint: activity coefficient

[[record]]
compound = "C=CC [propene] + CCC(O)CC"
assay_value = 2.32

[[record]]
compound = "C=C(C)C [2-methylpropene] + CCC(O)CC"
assay_value = 2.43

[[record]]
compound = "C/C=C/C [(E)-2-butene] + CCC(O)CC"
assay_value = 2.5

[[record]]
compound = "CC(C)C [2-methylpropane] + CCC(O)CC"
assay_value = 2.98

[[record]]
compound = "CCCC [butane] + CCC(O)CC"
assay_value = 2.79


----------
- Method Summary: activity coefficient (dimensionless); of the first substance listed, at infinite dilution; xn = mol fraction of the nth substance listed
- Run Parameters: 270.01 K; Liquid; x1 = 0
Items are presented alongside their recorded activity coefficient.
Recorded Endpoint: activity coefficient

[[record]]
molecule = "CCCC [butane] + CCCCCO"
recorded_endpoint = "activity coefficient"
assay_value = 3.33

[[record]]
molecule = "C=CC=C [1,3-butadiene] + CCCCCO"
recorded_endpoint = "activity coefficient"
assay_value = 2.51

[[record]]
molecule = "C=C(C)C [2-methylpropene] + CCCCCO"
recorded_endpoint = "activity coefficient"
assay_value = 2.84

[[record]]
molecule = "CC(C)C [2-methylpropane] + CCCCCO"
recorded_endpoint = "activity coefficient"
assay_value = 3.59


----------
- Method Summary: activity coefficient (dimensionless); of the first substance listed, at infinite dilution; xn = mol fraction of the nth substance listed
- Run Parameters: 249.96 K; Liquid; x1 = 0
Items are presented alongside their recorded activity coefficient.
Recorded Endpoint: activity coefficient

[[record]]
compound = "C/C=C/C [(E)-2-butene] + CCCCCO"
recorded_endpoint = "activity coefficient"
assay_value = 2.8

[[record]]
compound = "C=CC [propene] + CCCCCO"
recorded_endpoint = "activity coefficient"
assay_value = 2.59

[[record]]
compound = "C=CCC [1-butene] + CCCCCO"
recorded_endpoint = "activity coefficient"
assay_value = 2.88

[[record]]
compound = "CCC [propane] + CCCCCO"
recorded_endpoint = "activity coefficient"
assay_value = 3.08


----------
- Method Summary: activity coefficient (dimensionless); of the first substance listed, at infinite dilution; xn = mol fraction of the nth substance listed
- Run Parameters: 249.97 K; Liquid; x1 = 0
Items are presented alongside their recorded activity coefficient.
Recorded Endpoint: activity coefficient

[[record]]
compound = "CC(C)C [2-methylpropane] + CCCCCO"
assay_value = 3.65

[[record]]
compound = "C=CC=C [1,3-butadiene] + CCCCCO"
assay_value = 2.5

[[record]]
compound = "CCCC [butane] + CCCCCO"
assay_value = 3.43

[[record]]
compound = "C=C(C)C [2-methylpropene] + CCCCCO"
assay_value = 2.86


----------
- Method Summary: activity coefficient (dimensionless); of the first substance listed, at infinite dilution; xn = mol fraction of the nth substance listed
- Run Parameters: 310 K; Liquid; x1 = 0
# condition met = activity coefficient below 3 (exclusive); condition not met = activity coefficient at/above 3

[[record]]
compound = "C=CC [propene] + CCCC(C)O"
label = "condition met"

[[record]]
compound = "C=CC=C [1,3-butadiene] + CCCCCO"
label = "condition met"

[[record]]
compound = "CCCC [butane] + CCCCCO"
label = "condition not met"

[[record]]
compound = "CC(C)C [2-methylpropane] + CCCCCO"
label = "condition not met"

[[record]]
compound = "CCCC [butane] + CCCC(C)O"
label = "condition not met"

[[record]]
compound = "C=CCC [1-butene] + CCCCCO"
label = "condition met"

[[record]]
compound = "C=CC=C [1,3-butadiene] + CCCC(C)O"
label = "condition met"


----------
- Method Summary: activity coefficient (dimensionless); of the first substance listed, at infinite dilution; xn = mol fraction of the nth substance listed
- Run Parameters: 310.01 K; Liquid; x1 = 0
Recorded Endpoint: activity coefficient

[[record]]
molecule = "CCCC [butane] + CCC(O)CC"
assay_value = 3.04

[[record]]
molecule = "C=C(C)C [2-methylpropene] + CCC(O)CC"
assay_value = 2.69

[[record]]
molecule = "CCC [propane] + CCC(O)CC"
assay_value = 2.9

[[record]]
molecule = "CC(C)C [2-methylpropane] + CCC(O)CC"
assay_value = 3.22

[[record]]
molecule = "C=CCC [1-butene] + CCC(O)CC"
assay_value = 2.72

[[record]]
molecule = "C=CC [propene] + CCC(O)CC"
assay_value = 2.53

[[record]]
molecule = "C/C=C/C [(E)-2-butene] + CCC(O)CC"
assay_value = 2.67


----------
- Method Summary: activity coefficient (dimensionless); of the first substance listed, at infinite dilution; xn = mol fraction of the nth substance listed
- Run Parameters: 270.02 K; Liquid; x1 = 0
Items are presented alongside their recorded activity coefficient.
Recorded Endpoint: activity coefficient

[[record]]
molecule = "CCCC [butane] + CCC(O)CC"
assay_value = 3.4

[[record]]
molecule = "C=C(C)C [2-methylpropene] + CCC(O)CC"
assay_value = 3.15

[[record]]
molecule = "C/C=C/C [(E)-2-butene] + CCC(O)CC"
assay_value = 3.06

[[record]]
molecule = "C=CC=C [1,3-butadiene] + CCC(O)CC"
assay_value = 3.03

[[record]]
molecule = "CCC [propane] + CCC(O)CC"
assay_value = 3.21

[[record]]
molecule = "CC(C)C [2-methylpropane] + CCC(O)CC"
assay_value = 3.62

[[record]]
molecule = "C=CCC [1-butene] + CCC(O)CC"
assay_value = 3.16

[[record]]
molecule = "C=CC [propene] + CCC(O)CC"
assay_value = 2.87


----------
Items are presented alongside their recorded activity coefficient.
- Method Summary: activity coefficient (dimensionless); of the first substance listed, at infinite dilution; xn = mol fraction of the nth substance listed
- Run Parameters: 280 K; Liquid; x1 = 0
Recorded Endpoint: activity coefficient

[[record]]
compound = "C=C(C)C [2-methylpropene] + CCC(O)CC"
assay_value = 3.04

[[record]]
compound = "C=CC [propene] + CCC(O)CC"
assay_value = 2.82

[[record]]
compound = "C=CCC [1-butene] + CCC(O)CC"
assay_value = 3.05

[[record]]
compound = "C/C=C/C [(E)-2-butene] + CCC(O)CC"
assay_value = 2.96

[[record]]
compound = "CC(C)C [2-methylpropane] + CCC(O)CC"
assay_value = 3.53

[[record]]
compound = "CCCC [butane] + CCC(O)CC"
assay_value = 3.36

[[record]]
compound = "C=CC=C [1,3-butadiene] + CCC(O)CC"
assay_value = 2.92

[[record]]
compound = "CCC [propane] + CCC(O)CC"
assay_value = 3.14


----------
- Method Summary: activity coefficient (dimensionless); of the first substance listed, at infinite dilution; xn = mol fraction of the nth substance listed
- Run Parameters: 290 K; Liquid; x1 = 0
Would you please tag the item 1.0 when its activity coefficient is 3 or above, and 0.0 when it is below?

[[record]]
compound = "CCCC [butane] + CCCC(C)O"
label = 1.0

[[record]]
compound = "CC(C)C [2-methylpropane] + CCCCCO"
label = 1.0

[[record]]
compound = "CCCC [butane] + CCCCCO"
label = 1.0

[[record]]
compound = "CCCC [butane] + CCC(O)CC"
label = 1.0

[[record]]
compound = "C=CC [propene] + CCC(O)CC"
label = 0.0

[[record]]
compound = "C=CCC [1-butene] + CCCC(C)O"
label = 0.0

[[record]]
compound = "CC(C)C [2-methylpropane] + CCC(O)CC"
label = 1.0

[[record]]
compound = "C=C(C)C [2-methylpropene] + CCCCCO"
label = 0.0

[[record]]
compound = "C/C=C/C [(E)-2-butene] + CCCCCO"
label = 0.0

[[record]]
compound = "C=CCC [1-butene] + CCCCCO"
label = 0.0

[[record]]
compound = "C=C(C)C [2-methylpropene] + CCCC(C)O"
label = 0.0

[[record]]
compound = "C=CC=C [1,3-butadiene] + CCC(O)CC"
label = 0.0

[[record]]
compound = "C=CC [propene] + CCCC(C)O"
label = 0.0

